Values from patent US7863304B2

procedure.text: Striatal cell culture, 30 nM okadaic acid injury, MTT viability
Format: cell-based, Wistar rats
condition.parameters: Wistar, rat; okadaic acid alone, other studies FIGS. 2-6 (striatal and cortical cultures); read-out: decrease in numbers of viable cells

>  <compound>
C=C1[C@@H](O)[C@@H]2O[C@]3(CC[C@H](/C=C/[C@@H](C)[C@@H]4CC(C)=C[C@@]5(O[C@H](C[C@@](C)(O)C(=O)O)CC[C@H]5O)O4)O3)CC[C@H]2O[C@@H]1[C@@H](O)C[C@H](C)[C@H]1O[C@@]2(CCCCO2)CC[C@H]1C [okadaic acid, reference compound]

>  <cytotoxicity at 24 h>
10 to 50%

$$$$

###

procedure.text: Rat cortical dissociated cell culture, okadaic acid injury, MTT viability
condition.parameters: Wistar, rat
Description: Embryonic E18/19 wistar rats were used for the generation of dissociated cortical cell cultures. The rear portion (occipital cortex-area 17/18 of the visual cortex) of the cortical plate is used for the generation of the cultures. […] Whole cortices of P1/2 wistar pups were collected into separate tubes containing 4 ml DMEM-1 cortex per tube. […] The cell growth was monitored and media+FBS replaced twice weekly until the cells were confluent (˜10-14 days). […]
recorded.metric: cytotoxicity at 24 h

>  <molecule>
C=C1[C@@H](O)[C@@H]2O[C@]3(CC[C@H](/C=C/[C@@H](C)[C@@H]4CC(C)=C[C@@]5(O[C@H](C[C@@](C)(O)C(=O)O)CC[C@H]5O)O4)O3)CC[C@H]2O[C@@H]1[C@@H](O)C[C@H](C)[C@H]1O[C@@]2(CCCCO2)CC[C@H]1C [okadaic acid, reference compound]

>  <recorded.metric>
cytotoxicity at 24 h

>  <result>
~30%

$$$$
